target: TAS2R31 (Homo sapiens); construct: pEAK10; transient in HEK293T with chimeric G protein Galpha16gust44 (and mt-apoclytin II reporter); experiment: luminescence (mt-apoclytin II) Ca2+ assay, HEK293T; type: cell-based
Sequence (P59538 whole entry): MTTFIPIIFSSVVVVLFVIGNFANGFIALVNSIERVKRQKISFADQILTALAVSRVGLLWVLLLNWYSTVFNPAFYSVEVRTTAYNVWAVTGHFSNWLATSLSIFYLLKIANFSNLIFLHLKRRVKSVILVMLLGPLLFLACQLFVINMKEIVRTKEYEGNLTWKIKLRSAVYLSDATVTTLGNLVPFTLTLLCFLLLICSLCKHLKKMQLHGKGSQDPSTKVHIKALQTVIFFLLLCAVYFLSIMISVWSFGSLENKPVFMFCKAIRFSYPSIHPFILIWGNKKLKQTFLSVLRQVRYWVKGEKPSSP
IC50 listing for selected molecules.
Returns: string containing the number followed by the unit.

Short answer for CC(C)[C@@H]1CC[C@@H](C)C[C@H]1O [(−)‐menthol] : IC50 was 310 µM

What the record says about CC(C)[C@H]1CC[C@H](C)C[C@@H]1O [(+)‐menthol] : IC50 is 220 µM

Briefly, IC50 measured for C=C(C)[C@@H]1CC=C(C)C(=O)C1 [(R)‐(‐)‐carvone] : 86 µM

IC50 for `CC(C)[C@@H]1CC[C@@H](C)CC1=O` is 570 µM

In plain terms, CC(C)=C1CC[C@@H](C)CC1=O [(+)‐pulegone] has a documented IC50 of 290 µM

Short answer for CC1=CC(=O)[C@@H](C(C)C)CC1 [(R)‐(‐)‐piperitone] : IC50 was 180 µM

Source of measurements: paper PMC12667198
